Cited source: patent US4705799A

Tested on: Escherichia coli
protocol-summary: In vivo efficacy of compounds administered subcutaneously in mouse intraperitoneal infections
assay-context: sc, 168 h; mouse i.p. Escherichia coli infection; subcutaneous; dosed at infection and 4 h post-infection; 7 days; read-out: ED50 (50 percent effective dose)
measured-metric: ED50 (mg/kg)
Just the number please, in mg/kg, no unit attached.

Record COC(=O)NCC1CN(c2ccc(S(C)(=O)=O)cc2)C(=O)O1 (single isomer, unassigned) : what is its ED50 with Escherichia coli?
40.7

Observed ED50 on Escherichia coli for CCc1ccc(N2CC(CNC(C)=O)OC2=O)cc1 (single isomer, unassigned) [Example 133] , please.
15.2

Please provide the recorded ED50 for CC(=O)NCC1CN(c2ccc(C(C)C)cc2)C(=O)O1 (stereo not drawn) , tested on Escherichia coli.
60.4

State its ED50 on Escherichia coli: CCc1ccc(N2CC(CNC(C)=O)OC2=O)cc1 (stereo not drawn) [Example 82]
95.1

====

For each of the molecules below, state its MIC.
System: Staphylococcus epidermidis
protocol-summary: In vitro broth dilution minimal inhibitory concentration (standard microdilution method)
Format: cell-based
assay-context: 24 h, Mueller-Hinton broth, 24-hour, read-out: Microdilution Broth MIC
Enter your answer as a number in µg/mL; do not include the unit.

Endpoint output: MIC of CC(=O)NCC1CN(c2ccc(C(C)=NN)cc2)C(=O)O1 (single isomer, unassigned) . Value?
3.1

Which MIC value is on record for CC(=O)NCC1CN(c2ccc(C(C)(C)C)cc2)C(=O)O1 (stereo not drawn) ?
1

// MIC lookup, key: CC(=O)NCC1CN(c2ccc(C(=O)C=CN(C)C)cc2)C(=O)O1 (single isomer, unassigned)
32

Reported MIC, molecule C=CC(=O)NCC1CN(c2ccc(S(C)(=O)=O)cc2)C(=O)O1 (stereo not drawn) : ____
9.4

What value of MIC has been reported for the following molecule? CC(C)c1ccc(N2CC(CN=[N+]=[N-])OC2=O)cc1 (stereo not drawn)
100

Fill blank: measured MIC of the molecule CC(=O)NCC1CN(c2ccc(C(=O)C[S+](C)[O-])cc2)C(=O)O1 (single isomer, unassigned) [Example 165, dihydrate] is ____.
12.5

Quick check: MIC of "CC(=O)NC[C@H]1CN(c2ccc([S@+](C)[O-])cc2)C(=O)O1" ?
16

Query: MIC; subject: C[S+]([O-])c1ccc(N2CC(CNC=O)OC2=O)cc1 (stereo not drawn)
25

Dear colleague, I am looking for the recorded MIC of the following molecule: CC(=O)c1ccc(N2CC(CNC(=O)CN)OC2=O)cc1 (stereo not drawn)
32

MIC lookup needed for CC(C)(C)C(=O)NCC1CN(c2ccc(S(C)(=O)=O)cc2)C(=O)O1 (stereo not drawn) , thanks.
200

Can you look up the measured MIC of CCCc1ccc(N2CC(CNC(C)=O)OC2=O)cc1 (stereo not drawn) for me?
6.25

Look at this molecule and give its reported MIC. CC(=O)NCC1CN(c2ccc(C(=O)CCl)cc2)C(=O)O1 (stereo not drawn)
0.15

Field request: MIC | item: CCc1ccc(N2CC(CNC(=O)OC)OC2=O)cc1 (stereo not drawn)
12.5

Consider the molecule shown here: CC(=O)NCC1CN(c2ccc(S(N)(=O)=O)cc2)C(=O)O1 (single isomer, unassigned) What is its recorded MIC?
25
